Values were extracted from the supplement of paper PMC10567573.

B1: FBXO3 (parent)
chain: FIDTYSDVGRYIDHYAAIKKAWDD

- Variants of: B1
- Measurement Notes: protein stability index of a GFP-peptide fusion (GPS, HEK-293T) (PSI 1-6); higher = more stable;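 note: lentivirally expressed fusions sorted by FACS into six bins by GFP to DsRed ratio, PSI derived from sequencing read proportions per bin multiplied by bin number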
- Cond: c terminus: a fixed tail appended
Measure Name: protein stability index
Quick one: just the number, no unit, thanks!

### Prompt Suppose we examine the variant G9Y ; what protein stability index value has been reported?
### Response 2

### Prompt Please give the measured protein stability index for this variant: A16K
### Response 2.04
